value type: melting point

Please review the following examples before continuing.
COc1ccc(Cc2cnc(NC(=O)CCl)s2)cc1 :: 152 to 154 °C
O=[N+]([O-])c1ccc(O)c(Cc2ccccc2)c1 :: 117 to 121 °C
Nc1nonc1-c1ccccc1 :: 96 to 98 °C
CN1CC(=O)Nc2cc(Cl)ccc21 :: 181 to 183 °C
N#Cc1ccc(Oc2ccccc2O)c(F)c1 :: 97 to 99 °C
Cc1ccc(Oc2ccc(N)cc2Cl)c(Br)c1 :: 110 to 112 °C

Parameters: items (list). Returns: melting point for each item.
1. O=C(O)/C=C/c1ccccn1
2. Cc1ccc(-c2csc(CN)n2)cc1
3. Brc1cnc2nc[nH]c2c1
4. Nc1nc2nc(-c3cccs3)cc(C(F)(F)F)c2s1
5. CCCCc1ccc(NS(=O)(=O)c2cccc(C(=O)O)c2)cc1
6. COC(=O)c1c(C(=O)CCl)c(C)n(C2CC2)c1C

201 to 203 °C
72 to 74 °C
217 to 219 °C
243 to 245 °C
206 to 208 °C
74 to 78 °C

Parameters: items (list). Returns: melting point for each item.
1. O=C(O)c1ccc(-n2ccnc2)nn1
2. CCS(=O)(=O)Nc1ccc(C(=O)O)cn1
3. Cn1cc(C(=O)c2cccc(F)c2)cn1
4. Cc1ccsc1-c1nnc(S)o1
5. Cc1c(C(=O)O)cnn1-c1ccccc1Cl

["238 to 240 °C", "236 to 238 °C", "103 to 105 °C", "211 to 213 °C", "149 to 151 °C"]

Parameters: items (list). Returns: melting point for each item.
1. Cc1sc(N)nc1-c1ccc(OC(F)F)cc1
2. O=C(O)c1cnc(-c2ccc(C(F)(F)F)cc2)s1
3. Cc1nn(-c2ccccc2)c(C(F)(F)Cl)c1C(=O)O
4. O=C(O)c1ccc2c(c1)-c1ccccc1C2

1. 105 to 107 °C
2. 160 to 162 °C
3. 144 to 146 °C
4. 264 to 266 °C
